Data origin, for the record: patent US9585880B2

target: AKAP18δ-PLB interaction (UniProt P26678+Q6JP77); experiment: AlphaScreen binding assay of the GST-AKAP18δ : PLB-biotin interaction; conditions: compound library screen; Table 1 compounds similar to those of formula (I); read-out: EC50
Sequence (Q6JP77 whole entry): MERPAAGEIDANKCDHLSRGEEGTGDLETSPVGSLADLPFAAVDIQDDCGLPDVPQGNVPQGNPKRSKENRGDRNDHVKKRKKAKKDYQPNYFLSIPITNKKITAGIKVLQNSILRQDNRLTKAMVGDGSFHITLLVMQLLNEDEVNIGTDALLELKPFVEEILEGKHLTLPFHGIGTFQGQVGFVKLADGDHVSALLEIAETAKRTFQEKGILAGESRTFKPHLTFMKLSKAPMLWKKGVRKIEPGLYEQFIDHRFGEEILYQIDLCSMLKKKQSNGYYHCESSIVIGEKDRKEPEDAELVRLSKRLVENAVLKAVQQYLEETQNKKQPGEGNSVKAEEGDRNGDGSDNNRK
Sequence (P26678 whole entry): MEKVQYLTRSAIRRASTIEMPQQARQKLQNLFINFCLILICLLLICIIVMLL
Reported Property: EC50 (µM)

Look over these answered cases.
Item Smiles	Target Or System	Unit Tag	Value Observed
O=C(O)c1csc(CN(CCC(c2ccccc2)c2ccccc2)Cc2ccccc2F)n1	AKAP18δ-PLB interaction (UniProt P26678+Q6JP77)	µM	10.6
O=C(O)c1ccc(CN(Cc2ccccc2)Cc2ccc(C(=O)O)cc2)cc1	AKAP18δ-PLB interaction (UniProt P26678+Q6JP77)	µM	29.6
Cc1ccc(NC(=O)Nc2ccc(CN(Cc3ccccc3)Cc3ccc(NC(=O)Nc4ccc(C)cc4)cc3)cc2)cc1	AKAP18δ-PLB interaction (UniProt P26678+Q6JP77)	µM	2.5
CC(C)(C)c1ccc(CN(Cc2ccc(F)cc2)Cc2nc(C(=O)O)cs2)cc1	AKAP18δ-PLB interaction (UniProt P26678+Q6JP77)	µM	41.6

P = Nc1ccc(CN(Cc2ccccc2)Cc2ccc(N)cc2)cc1
Q = O=C(O)c1csc(CN(Cc2ccc(F)cc2)Cc2cccc(Cl)c2)n1
Input: P or Q : whose EC50 is greater? // return label of chosen record
Output: Q
(Q: 36.4 µM, P: 3.8 µM)
